Reference source for all entries: patent US10363239B2

Recorded measurements of Concentration of FLNA-Binding Compound as Agonist 0.1 μM, one per entry
- Tested on: mu opiate receptor (MOR)
- experiment-notes: MOR agonist activity using [35S]GTPγS binding assay in striatal membranes
- Assay type: biochemical
- condition-description: Series C-1; 0.1 μM compound; [35S]GTPγS binding to Gαo, striatal membranes
outcome-measure: Concentration of FLNA-Binding Compound as Agonist 0.1 μM

compound: O=C(c1ccc([N+](=O)[O-])cc1)N1CCC2(CC1)OCCN2S(=O)(=O)c1ccc([N+](=O)[O-])cc1 [Compound C0022]
recorded-result: 194.3%
//
compound: O=S(=O)(c1ccc(OC(F)(F)F)cc1)N1CCC2(CC1)OCCN2S(=O)(=O)c1ccc(OC(F)(F)F)cc1
recorded-result: 121.5%
//
compound: O=S(=O)(c1ccc(Cl)cc1)N1CCC2(CC1)OCCN2S(=O)(=O)c1ccc(Cl)cc1
recorded-result: 142.7%
//
compound: O=C(c1ccc([N+](=O)[O-])cc1)N1CCC2(CC1)OCCN2C(=O)c1ccc([N+](=O)[O-])cc1
recorded-result: 145.4%
//
compound: O=S(=O)(c1ccc(F)cc1)N1CCC2(CC1)OCCN2S(=O)(=O)c1ccc(F)cc1
recorded-result: 175.4%
//
compound: CS(=O)(=O)c1ccc(S(=O)(=O)N2CCC3(CC2)OCCN3S(=O)(=O)c2ccc(S(C)(=O)=O)cc2)cc1
recorded-result: 146.3%
//
compound: O=C1CN(Cc2ccccc2)C2(CCN(S(=O)(=O)c3cc(Cl)cc(Cl)c3O)CC2)N1 [Compound C0138M]
recorded-result: 126.9%
//
compound: O=S(=O)(c1ccc(Br)cc1Br)N1CCC2(CC1)OCCN2S(=O)(=O)c1ccc(Br)cc1Br
recorded-result: 165.6%
//
compound: O=S(=O)(c1ccc(Oc2ccccc2)cc1)N1CCC2(CC1)OCCN2S(=O)(=O)c1ccc(Oc2ccccc2)cc1 [Compound C0149M]
recorded-result: 209.8%
//
compound: O=S(=O)(c1cccc(OC(F)(F)F)c1)N1CCC2(CC1)OCCN2S(=O)(=O)c1cccc(OC(F)(F)F)c1
recorded-result: 180.4%
//
compound: O=C(O)c1ccc(C(=O)N2CCC3(CC2)OCCN3S(=O)(=O)c2ccc(C(=O)O)cc2)cc1
recorded-result: 159.7%
//
compound: CC(=O)c1ccc(S(=O)(=O)N2CCC3(CC2)NC(=O)C(Cc2cnc[nH]2)N3S(=O)(=O)c2ccc(C(C)=O)cc2)cc1 (centres unmarked) [Compound C0084M]
recorded-result: 163.1%
//
compound: COc1ccc(S(=O)(=O)N2CCC3(CC2)OCCN3S(=O)(=O)c2ccc(OC)c(OC)c2)cc1OC
recorded-result: 106.6%
//
compound: CC(=O)c1ccc(S(=O)(=O)N2CCC3(CC2)OCC(CCCCN(C)C)N3S(=O)(=O)c2ccc(C(C)=O)cc2)cc1 (centres unmarked)
recorded-result: 187.9%

###

- Tested on: mu opiate receptor (MOR)
- experiment-notes: MOR agonist activity using [35S]GTPγS binding assay in striatal membranes
- Format: biochemical
- condition-description: Series C-1; 0.1 μM compound, relative to DAMGO
- Procedure: To assess the mu opiate receptor (MOR) agonist activity of positive compounds from the FLNA screening, compounds were tested in a [^35S]GTPγS binding assay using striatal membranes. […] The immunocomplexes so formed were collected by incubation at 25° C. for 30 minutes with 40 μl of agarose-conjugated protein A/G beads and centrifugation at 5,000×g at 4° C. for 5 minutes. […] The radioactivity in the suspension was determined by liquid scintillation spectrometry.
Classification field: YES = % DAMGO (0.1 μM) at or over 90%; NO = % DAMGO (0.1 μM) under 90%.

compound: O=S(=O)(c1ccccc1)N1CCC2(CC1)OCCN2S(=O)(=O)c1ccccc1
assigned-category: YES

compound: O=S(=O)(c1ccc2ccccc2c1)N1CCC2(CC1)OCCN2S(=O)(=O)c1ccc2ccccc2c1 [Compound C0140M]
assigned-category: NO

compound: O=S(=O)(c1cccc2cccnc12)N1CCC2(CC1)OCCN2S(=O)(=O)c1cccc2cccnc12 [Compound C0143M]
assigned-category: NO

compound: COc1ccc(S(=O)(=O)N2CCOC23CCN(S(=O)(=O)c2ccc(C(C)=O)cc2)CC3)cc1
assigned-category: YES

compound: COc1cccc(S(=O)(=O)N2CCC3(CC2)OCCN3S(=O)(=O)c2cccc(OC)c2)c1
assigned-category: NO

compound: CC(C)c1ccc(S(=O)(=O)N2CCC3(CC2)OCCN3S(=O)(=O)c2ccc(C(C)C)cc2)cc1
assigned-category: NO

compound: CC(=O)c1ccc(C(=O)N2CCC3(CC2)OCCN3C(=O)c2ccc(C(C)=O)cc2)cc1
assigned-category: NO

compound: O=C(O)c1ccc(C(=O)N2CCC3(CC2)OCCN3S(=O)(=O)c2ccc(C(=O)O)cc2)cc1
assigned-category: YES

compound: O=S(=O)(c1ccc(OC(F)(F)F)cc1)N1CCC2(CC1)OCCN2S(=O)(=O)c1ccc(OC(F)(F)F)cc1
assigned-category: NO

compound: CC(=O)c1ccc(S(=O)(=O)N2CCC3(CC2)NCC(=O)N3Cc2ccccc2)cc1 [Compound C0082M]
assigned-category: YES

compound: COc1ccc(C(=O)N2CCC3(CC2)OCCN3C(=O)c2ccc(OC)cc2)cc1
assigned-category: NO

compound: O=C(c1ccc([N+](=O)[O-])cc1)N1CCC2(CC1)OCCN2C(=O)c1ccc([N+](=O)[O-])cc1
assigned-category: YES

compound: CCCCc1ccc(S(=O)(=O)N2CCC3(CC2)OCCN3S(=O)(=O)c2ccc(CCCC)cc2)cc1
assigned-category: YES

compound: O=C(OCc1ccccc1)c1ccc(S(=O)(=O)N2CCC3(CC2)OCCN3S(=O)(=O)c2ccc(C(=O)OCc3ccccc3)cc2)cc1
assigned-category: YES
